Biological target: Lysine-specific histone demethylase 1A (Homo sapiens)
OUTCOME_MEASURE: pIC50
Bear in mind: pIC50 is minus log10 of a mol/L concentration; give just that figure.

Exercise: May I ask what pIC50 has been recorded for CN1CCN(C(=O)CN[C@H]2C[C@@H]2c2ccc(-c3ccc(F)nc3)cc2)CC1 (relative stereo) ?
Key: 7.11

---

Here the recorded Ki is given for each entry.
Sequence of the target: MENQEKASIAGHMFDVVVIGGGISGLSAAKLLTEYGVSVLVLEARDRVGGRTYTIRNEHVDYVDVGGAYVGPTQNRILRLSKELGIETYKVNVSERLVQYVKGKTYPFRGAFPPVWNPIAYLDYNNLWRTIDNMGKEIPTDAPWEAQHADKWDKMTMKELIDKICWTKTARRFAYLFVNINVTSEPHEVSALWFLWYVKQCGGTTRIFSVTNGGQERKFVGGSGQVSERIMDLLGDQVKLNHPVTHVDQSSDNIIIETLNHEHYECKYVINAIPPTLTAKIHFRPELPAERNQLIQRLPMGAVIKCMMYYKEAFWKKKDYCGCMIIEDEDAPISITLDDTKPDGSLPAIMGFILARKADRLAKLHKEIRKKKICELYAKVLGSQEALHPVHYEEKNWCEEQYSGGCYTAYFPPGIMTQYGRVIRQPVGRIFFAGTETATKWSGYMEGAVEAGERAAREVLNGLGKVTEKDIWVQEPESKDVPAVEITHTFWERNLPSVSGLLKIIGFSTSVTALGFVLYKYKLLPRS

N#Cc1ccc(-c2cc(OCC3CCNCC3)cnc2-c2ccccc2)cc1 : > 50 µM

The record that follows has no Ki shown yet.
Exercise: May I ask what Ki has been recorded for N#Cc1ccc(-c2cc(OCC3CCNCC3)cnc2-c2ccc(C(F)(F)F)cc2)cc1 ?
Key: > 50 µM
